Each recorded value in this set is attributed to patent US11236046B2.

# ASSAY TARGET: human TRPA1 (Homo sapiens (Human))
# Sequence (O75762 whole entry): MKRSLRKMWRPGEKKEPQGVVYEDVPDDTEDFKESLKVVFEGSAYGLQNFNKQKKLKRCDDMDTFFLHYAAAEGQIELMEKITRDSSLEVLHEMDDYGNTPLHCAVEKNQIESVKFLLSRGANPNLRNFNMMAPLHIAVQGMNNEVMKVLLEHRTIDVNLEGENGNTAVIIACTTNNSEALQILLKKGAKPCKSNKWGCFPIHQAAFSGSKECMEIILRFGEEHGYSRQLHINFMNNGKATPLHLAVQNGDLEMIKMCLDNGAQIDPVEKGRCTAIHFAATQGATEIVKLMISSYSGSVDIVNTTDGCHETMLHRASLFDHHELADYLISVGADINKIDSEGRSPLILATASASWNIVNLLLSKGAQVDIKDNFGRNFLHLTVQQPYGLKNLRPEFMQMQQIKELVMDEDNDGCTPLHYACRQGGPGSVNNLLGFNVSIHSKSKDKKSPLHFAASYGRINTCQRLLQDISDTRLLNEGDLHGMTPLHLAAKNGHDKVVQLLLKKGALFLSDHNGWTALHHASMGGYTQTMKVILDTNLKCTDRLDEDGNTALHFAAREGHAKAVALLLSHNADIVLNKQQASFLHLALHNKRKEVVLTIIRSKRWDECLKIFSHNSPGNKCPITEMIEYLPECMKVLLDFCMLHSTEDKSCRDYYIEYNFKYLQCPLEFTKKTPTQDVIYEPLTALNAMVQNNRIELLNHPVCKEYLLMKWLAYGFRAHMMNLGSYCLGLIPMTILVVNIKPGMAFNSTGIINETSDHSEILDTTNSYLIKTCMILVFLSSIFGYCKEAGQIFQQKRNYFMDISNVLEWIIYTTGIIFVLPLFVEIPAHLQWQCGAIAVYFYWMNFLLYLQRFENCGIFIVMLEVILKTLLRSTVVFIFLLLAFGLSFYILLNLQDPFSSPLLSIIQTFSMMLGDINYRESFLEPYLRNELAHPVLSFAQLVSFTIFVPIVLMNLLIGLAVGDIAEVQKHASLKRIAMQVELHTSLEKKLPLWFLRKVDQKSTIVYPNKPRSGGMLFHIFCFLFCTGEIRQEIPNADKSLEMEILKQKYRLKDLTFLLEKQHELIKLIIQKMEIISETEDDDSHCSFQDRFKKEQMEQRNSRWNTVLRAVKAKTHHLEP
# ASSAY TEXT: FLIPR Tetra calcium influx assay, block of cinnamaldehyde-induced calcium influx in CHO cells expressing TRPA1 (human)
# Format: cell-based
# STATED CONDITIONS: 20 min compound incubation, 75 uM cinnamaldehyde (~EC80), Hill coefficient fixed to 1.5, read-out: hTRPA1 AUC IC50
ENDPOINT LABEL: IC50 (nM)
Give the value in nM but do not write nM after it.

Worked cases, IC50 given:
SMILES RECORD | IC50 [nM]
O=C(NCc1cc(F)cc(-c2csc(C(F)(F)F)n2)c1)[C@@H]1C[C@@H](F)CN1S(=O)(=O)c1ccc(F)cc1 | 111
O=C(NCc1cc(F)cc(-c2cnc(C(F)(F)F)nc2)c1)[C@@H]1[C@@H](F)CCN1S(=O)(=O)c1ccc(F)cc1 | 7
COc1nn(-c2ccc(C(F)(F)F)cc2)cc1CNC(=O)[C@@H]1C[C@@H](F)CN1S(=O)(=O)c1ccc(F)cc1 | 11

Tested on human TRPA1 (Homo sapiens (Human)): O=C(NCc1cc(-c2ccc(C(F)(F)F)nc2)ncn1)[C@@H]1C[C@@H](F)CN1S(=O)(=O)c1ccc(F)cc1 . Observed IC50: 97
